The compounds listed here are annotated with their pIC50.
SUBJECT OF TEST: PI 4-kinase beta (Homo sapiens)
Sequence (Q9UBF8 whole entry): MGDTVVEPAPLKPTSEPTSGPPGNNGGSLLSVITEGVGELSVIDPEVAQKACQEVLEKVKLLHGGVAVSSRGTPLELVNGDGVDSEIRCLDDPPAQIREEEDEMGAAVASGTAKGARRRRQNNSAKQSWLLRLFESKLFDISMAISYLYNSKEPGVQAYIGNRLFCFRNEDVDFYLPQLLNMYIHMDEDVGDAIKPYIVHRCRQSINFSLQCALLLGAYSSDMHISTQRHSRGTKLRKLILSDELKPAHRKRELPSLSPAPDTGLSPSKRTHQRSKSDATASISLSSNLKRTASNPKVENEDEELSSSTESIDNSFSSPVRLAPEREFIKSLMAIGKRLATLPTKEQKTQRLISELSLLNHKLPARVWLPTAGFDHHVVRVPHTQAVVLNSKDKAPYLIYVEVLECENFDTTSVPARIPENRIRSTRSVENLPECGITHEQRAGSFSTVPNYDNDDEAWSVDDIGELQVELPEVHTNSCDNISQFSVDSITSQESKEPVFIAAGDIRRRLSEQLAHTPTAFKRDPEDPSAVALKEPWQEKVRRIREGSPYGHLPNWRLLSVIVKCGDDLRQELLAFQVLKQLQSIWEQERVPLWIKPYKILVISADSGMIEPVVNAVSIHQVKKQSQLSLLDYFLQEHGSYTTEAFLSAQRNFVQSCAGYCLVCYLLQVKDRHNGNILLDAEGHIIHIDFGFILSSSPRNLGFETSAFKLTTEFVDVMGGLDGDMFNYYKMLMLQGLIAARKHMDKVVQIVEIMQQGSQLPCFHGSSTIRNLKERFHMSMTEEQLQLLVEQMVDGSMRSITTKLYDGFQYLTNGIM
ASSAY PROTOCOL: Kinase Glo Luminescent Kinase Assay (Kglo), assay D
Type: biochemical
CONDITION SET: read-out: Assay D PI4Kβ IC50
Structures can show the parent of a compound that is named as a salt.
Just the number, please; pIC50 means minus log10 of the concentration in mol/L.

For orientation, consider the following solved cases.
COMPOUND	pIC50
Cc1ccc(S(=O)(=O)N2CCC(F)(F)C2)cc1-c1cnc(N)c(-n2cncn2)n1	5.47
Cc1ccc(S(=O)(=O)NCCC(C)(C)O)cc1-c1cnc(N)c(-c2c[nH]nc2C)n1	5.66

Which pIC50 is reported for this compound? Cc1ccc(S(=O)(=O)NC[C@H]2CCCN2)cc1-c1cnc(N)c(-c2cn(C)nc2C)n1 [Example 106, hydrochloride] 5.25

Which pIC50 is reported for this compound? Cc1ccc(S(=O)(=O)NCC(C)(C)O)cc1-c1cnc(N)c(-c2ccoc2)n1 5.15

----------
SUBJECT OF TEST: PI 3-kinase alpha (Homo sapiens, UniProt P42336)
Sequence (P42336 whole entry): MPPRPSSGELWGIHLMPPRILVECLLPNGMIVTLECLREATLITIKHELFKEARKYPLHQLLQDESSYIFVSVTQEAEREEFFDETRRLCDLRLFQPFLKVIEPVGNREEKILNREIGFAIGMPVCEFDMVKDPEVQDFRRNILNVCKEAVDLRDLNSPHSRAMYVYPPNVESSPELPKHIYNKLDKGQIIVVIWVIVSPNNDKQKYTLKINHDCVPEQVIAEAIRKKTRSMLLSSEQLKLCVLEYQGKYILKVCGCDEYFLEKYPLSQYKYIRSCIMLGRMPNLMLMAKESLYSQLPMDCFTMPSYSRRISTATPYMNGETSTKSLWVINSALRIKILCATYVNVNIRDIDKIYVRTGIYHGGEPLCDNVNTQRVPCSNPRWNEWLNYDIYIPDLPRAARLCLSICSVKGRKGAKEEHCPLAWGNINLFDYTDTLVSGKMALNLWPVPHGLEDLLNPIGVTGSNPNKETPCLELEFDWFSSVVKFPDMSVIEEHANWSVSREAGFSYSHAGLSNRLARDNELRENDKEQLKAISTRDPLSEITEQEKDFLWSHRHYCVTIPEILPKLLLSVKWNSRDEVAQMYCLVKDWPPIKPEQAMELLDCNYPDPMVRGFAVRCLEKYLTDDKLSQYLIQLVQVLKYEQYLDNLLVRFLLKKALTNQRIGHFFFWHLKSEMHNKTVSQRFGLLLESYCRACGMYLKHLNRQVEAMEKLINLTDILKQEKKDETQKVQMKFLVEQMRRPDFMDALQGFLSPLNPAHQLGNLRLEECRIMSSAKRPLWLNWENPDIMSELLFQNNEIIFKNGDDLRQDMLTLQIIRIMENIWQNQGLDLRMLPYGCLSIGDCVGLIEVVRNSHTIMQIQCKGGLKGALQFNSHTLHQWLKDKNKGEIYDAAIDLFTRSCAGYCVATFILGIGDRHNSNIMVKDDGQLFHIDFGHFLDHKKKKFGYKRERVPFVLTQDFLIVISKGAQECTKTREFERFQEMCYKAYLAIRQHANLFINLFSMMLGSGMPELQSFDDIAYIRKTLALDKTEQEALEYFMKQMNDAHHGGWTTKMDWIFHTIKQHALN
Sequence (Q63787 whole entry partner): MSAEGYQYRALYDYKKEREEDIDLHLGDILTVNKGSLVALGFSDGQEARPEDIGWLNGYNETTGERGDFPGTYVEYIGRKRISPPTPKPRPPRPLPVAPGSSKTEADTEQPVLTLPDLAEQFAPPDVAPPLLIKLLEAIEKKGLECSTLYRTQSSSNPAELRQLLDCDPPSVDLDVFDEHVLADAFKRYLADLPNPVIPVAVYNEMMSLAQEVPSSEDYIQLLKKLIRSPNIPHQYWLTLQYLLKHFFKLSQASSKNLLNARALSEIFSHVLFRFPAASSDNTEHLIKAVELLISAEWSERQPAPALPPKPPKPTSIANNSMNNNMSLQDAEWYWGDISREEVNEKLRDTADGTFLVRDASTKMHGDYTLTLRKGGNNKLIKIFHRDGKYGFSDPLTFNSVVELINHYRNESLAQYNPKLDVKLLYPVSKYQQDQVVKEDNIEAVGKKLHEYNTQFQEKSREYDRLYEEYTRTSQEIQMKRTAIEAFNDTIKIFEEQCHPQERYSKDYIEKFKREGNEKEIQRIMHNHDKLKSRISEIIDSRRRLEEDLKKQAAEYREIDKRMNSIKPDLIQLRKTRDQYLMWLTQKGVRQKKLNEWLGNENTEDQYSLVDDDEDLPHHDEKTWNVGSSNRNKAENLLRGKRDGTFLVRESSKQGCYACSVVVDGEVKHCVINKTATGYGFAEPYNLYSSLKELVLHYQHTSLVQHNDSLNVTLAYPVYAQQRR
ASSAY PROTOCOL: Cellular assay H1, p-Akt (S473) in Rat-1 cells, Surefire format
Format: cell-based
CONDITION SET: non-asterisked data: version H1 (Surefire format), Rat-1 cells; read-out: Assay H PI3Kα IC50
Class boundaries, taken from values of IC50, are as follows: low group = under 1 µM, middle group = from 1 µM up to 3 µM, high group = 3 µM and over

Example entries and their recorded answers appear below.
COMPOUND	ASSIGNED CATEGORY
Cc1ccc(S(=O)(=O)NCCC(C)(C)O)cc1-c1cnc(N)c(-c2cnn(CC(F)(F)F)c2)n1	middle group
Cc1ccc(S(=O)(=O)NCC(C)(C)O)cc1-c1cnc(N)c(-c2cnc(C3CC3)s2)n1	low group
CCc1nnc(-c2nc(-c3cc(S(=O)(=O)N[C@H]4CC[C@H](O)CC4)ccc3C)cnc2N)o1	high group

Lab log: Cc1ccc(S(=O)(=O)NOC2CCOC2)cc1-c1cnc(N)c(-n2cncn2)n1 (stereo not drawn) — assign IC50 category low group

Lab log: Cc1ccc(S(=O)(=O)NCCC(F)(F)F)cc1-c1cnc(N)c(-n2cncn2)n1 — assign IC50 category low group

Lab log: Cc1ccc(S(=O)(=O)NCCC(C)(C)O)cc1-c1cnc(N)c(-c2cnn(CCC(C)C)c2)n1 — assign IC50 category low group

Lab log: Cc1ccc(S(=O)(=O)NCC2(C)COC2)cc1-c1cnc(N)c(-n2cncn2)n1 — assign IC50 category high group

Lab log: Cc1ccc(S(=O)(=O)NCCC(C)(C)O)cc1-c1cnc(N)c(-c2cccnc2OC(C)C)n1 [Reference example 119.12] — assign IC50 category high group

----------
SUBJECT OF TEST: PI 4-kinase beta (Homo sapiens)
ASSAY PROTOCOL: Kinase Glo Luminescent Kinase Assay (Kglo), assay D
Type: biochemical
CONDITION SET: read-out: Assay D PI4Kβ IC50
REPORTED ENDPOINT: IC50 (µM)
Write it as a number; the unit µM goes unstated.

For orientation, consider the following solved cases.
MOLECULE	IC50, µM
Cc1ncc(-c2nc(-c3cc(S(=O)(=O)NCCO)ccc3C)cnc2N)s1	1.6
Cc1ccc(S(=O)(=O)NCC(F)(F)F)cc1-c1cnc(N)c(-n2cncn2)n1	4.4

Which IC50 is reported for this molecule? Cc1ncc(-c2nc(-c3cc(S(=O)(=O)NC[C@H]4CCOC4)ccc3C)cnc2N)s1 3.5

Which IC50 is reported for this molecule? CC(C)(O)CNS(=O)(=O)c1cccc(-c2cnc(N)c(-n3cncn3)n2)c1 2.5

Which IC50 is reported for this molecule? Cc1ccc(S(=O)(=O)NCCCF)cc1-c1cnc(N)c(-n2cncn2)n1 3.9

Which IC50 is reported for this molecule? Cc1ccc(S(=O)(=O)N[C@H]2CC[C@H](O)CC2)cc1-c1cnc(N)c(-c2cnn(C)c2)n1 5.85

Which IC50 is reported for this molecule? Cc1ccc(S(=O)(=O)N2CC(F)(F)C2)cc1-c1cnc(N)c(-n2cncn2)n1 4.2

Which IC50 is reported for this molecule? Cc1cc(F)c(S(=O)(=O)NCCC(C)(C)O)cc1-c1cnc(N)c(-n2cncn2)n1 8.1

Which IC50 is reported for this molecule? Cc1ccc(S(=O)(=O)NC[C@H]2CCOC2)cc1-c1cnc(N)c(-n2cncn2)n1 8.7

Which IC50 is reported for this molecule? COc1ccc(-c2nc(-c3cc(S(=O)(=O)NCCC(C)(C)O)ccc3C)cnc2N)c(C)n1 7.35

Which IC50 is reported for this molecule? Cc1ncc(-c2nc(-c3cc(S(=O)(=O)NCC4CCCCO4)ccc3C)cnc2N)s1 (stereo not drawn) 1.8

Which IC50 is reported for this molecule? Cc1ccc(S(=O)(=O)N2CCCC(F)(F)C2)cc1-c1cnc(N)c(-n2cncn2)n1 1.5

Which IC50 is reported for this molecule? Cc1ccc(S(=O)(=O)NOC2CCOC2)cc1-c1cnc(N)c(-n2cncn2)n1 (stereo not drawn) 3

Which IC50 is reported for this molecule? CCOc1ccc(-c2nc(-c3cc(S(=O)(=O)NCCC(C)(C)O)ccc3C)cnc2N)cn1 4.14

----------
SUBJECT OF TEST: PI 3-kinase beta (Homo sapiens, UniProt P42338)
ASSAY PROTOCOL: Cellular assay I1, p-Akt (S473) in Rat-1 cells, Surefire format
Format: cell-based
CONDITION SET: non-asterisked data: version I1 (Surefire format), Rat-1 cells; read-out: Assay I PI3Kβ IC50
REPORTED ENDPOINT: IC50

For orientation, consider the following solved cases.
Cc1ccc(S(=O)(=O)N2CCCC(F)(F)C2)cc1-c1cnc(N)c(-n2cncn2)n1 > 10 µM
Cc1cc(-c2nc(-c3cc(S(=O)(=O)NCCCCCO)ccc3C)cnc2N)ccn1 > 10 µM
Cc1cc(F)c(S(=O)(=O)NCCCO)cc1-c1cnc(N)c(-c2cnn(C)c2)n1 > 3 µM

Moving on to another compound below.
Which IC50 is reported for this compound? Cc1ccc(S(=O)(=O)NOCCN(C)C)cc1-c1cnc(N)c(-n2cncn2)n1 > 10 µM

----------
SUBJECT OF TEST: PI 4-kinase beta (Homo sapiens)
ASSAY PROTOCOL: Kinase Glo Luminescent Kinase Assay (Kglo), assay D
Type: biochemical
CONDITION SET: read-out: Assay D PI4Kβ IC50
pIC50: −log10 of the molar value.
REPORTED ENDPOINT: pIC50

For orientation, consider the following solved cases.
COMPOUND	pIC50
Cc1cc(-c2nc(-c3cc(S(=O)(=O)NCC(C)(C)CN(C)C)ccc3C)cnc2N)ccn1	< 5.04
Cc1ccc(S(=O)(=O)NC2CC3(CC(O)C3)C2)cc1-c1cnc(N)c(-n2cncn2)n1 (single isomer, unassigned) [Example 70b]	< 5.00

Query for PI 4-kinase beta (Homo sapiens): what pIC50 does the record show for Cc1cc(-c2nc(-c3cc(S(=O)(=O)NC4CCN(C(C)C)CC4)ccc3C)cnc2N)ccn1 ? < 5.04

----------
The compounds listed here are annotated with their pIC50.
SUBJECT OF TEST: Vps34 (Homo sapiens)
Sequence (Q8NEB9 whole entry, species assumed): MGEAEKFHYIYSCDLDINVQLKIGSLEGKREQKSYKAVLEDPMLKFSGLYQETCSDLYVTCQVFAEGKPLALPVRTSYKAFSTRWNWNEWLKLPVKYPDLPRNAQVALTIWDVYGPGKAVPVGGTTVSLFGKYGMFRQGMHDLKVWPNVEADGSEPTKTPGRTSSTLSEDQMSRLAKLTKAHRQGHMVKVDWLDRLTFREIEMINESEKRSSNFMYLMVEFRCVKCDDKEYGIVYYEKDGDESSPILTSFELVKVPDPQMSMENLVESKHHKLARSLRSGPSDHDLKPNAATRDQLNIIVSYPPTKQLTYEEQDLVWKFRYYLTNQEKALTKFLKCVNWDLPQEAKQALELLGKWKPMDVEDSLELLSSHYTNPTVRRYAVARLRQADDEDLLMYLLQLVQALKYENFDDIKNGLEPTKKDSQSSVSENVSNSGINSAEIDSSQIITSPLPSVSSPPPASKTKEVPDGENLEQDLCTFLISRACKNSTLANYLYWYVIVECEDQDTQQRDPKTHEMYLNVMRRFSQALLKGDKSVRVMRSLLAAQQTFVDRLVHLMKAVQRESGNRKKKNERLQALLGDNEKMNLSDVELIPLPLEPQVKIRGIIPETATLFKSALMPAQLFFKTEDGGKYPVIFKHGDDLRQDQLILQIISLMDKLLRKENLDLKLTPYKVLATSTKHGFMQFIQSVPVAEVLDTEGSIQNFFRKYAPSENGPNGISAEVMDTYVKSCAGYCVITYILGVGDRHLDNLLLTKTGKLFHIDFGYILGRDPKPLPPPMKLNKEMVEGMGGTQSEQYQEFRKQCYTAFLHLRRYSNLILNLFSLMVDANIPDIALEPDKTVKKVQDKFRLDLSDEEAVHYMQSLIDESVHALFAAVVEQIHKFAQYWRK
ASSAY PROTOCOL: Kinase Glo Luminescent Kinase Assay (Kglo), assay C
Assay type: biochemical
CONDITION SET: read-out: Assay C VPS34 IC50
pIC50: −log10 of the molar value. Where a name gives a salt, the structure may show the parent alone.

For orientation, consider the following solved cases.
COMPOUND	pIC50
Cc1cc(-c2nc(-c3cc(S(=O)(=O)NCC4(C(N)=O)CCOCC4)ccc3C)cnc2N)ccn1	< 5.04
Cc1ncc(-c2nc(-c3cc(S(=O)(=O)NCC4(O)CCOCC4)ccc3C)cnc2N)s1	5.41
Cc1ccc(S(=O)(=O)NC[C@@H]2COCCN2)cc1-c1cnc(N)c(-c2cn(C)nc2C)n1	< 5.00
Cc1ccc(S(=O)(=O)NC2CCC2)cc1-c1cnc(N)c(-n2cncn2)n1	< 5.00
Cc1ccc(S(=O)(=O)N[C@@H]2CNC[C@H]2O)cc1-c1cnc(N)c(-n2cncn2)n1 [Example 127.60, trifluoroacetic acid salt]	< 5.00
Cc1ccc(S(=O)(=O)NC[C@@H]2COCCN2C)cc1-c1cnc(N)c(-c2cn(C)nc2C)n1 (single isomer, unassigned)	< 5.00
Cc1nc(C)n(-c2nc(-c3cc(S(=O)(=O)NCC(C)(C)O)ccc3C)cnc2N)n1	< 5.00
Cc1csc(-c2nc(-c3cc(S(=O)(=O)NCCC(C)(C)O)ccc3C)cnc2N)c1	< 5.04

Moving on to another compound below.
Which pIC50 is reported for this compound? Cc1ccc(S(=O)(=O)NC2CC3(CC(O)C3)C2)cc1-c1cnc(N)c(-c2cn(C)nc2C)n1 (single isomer, unassigned) [Example 9a] < 5.00

----------
The molecules listed here are annotated with their pIC50.
SUBJECT OF TEST: UniProt P48736
Sequence (P48736 whole entry): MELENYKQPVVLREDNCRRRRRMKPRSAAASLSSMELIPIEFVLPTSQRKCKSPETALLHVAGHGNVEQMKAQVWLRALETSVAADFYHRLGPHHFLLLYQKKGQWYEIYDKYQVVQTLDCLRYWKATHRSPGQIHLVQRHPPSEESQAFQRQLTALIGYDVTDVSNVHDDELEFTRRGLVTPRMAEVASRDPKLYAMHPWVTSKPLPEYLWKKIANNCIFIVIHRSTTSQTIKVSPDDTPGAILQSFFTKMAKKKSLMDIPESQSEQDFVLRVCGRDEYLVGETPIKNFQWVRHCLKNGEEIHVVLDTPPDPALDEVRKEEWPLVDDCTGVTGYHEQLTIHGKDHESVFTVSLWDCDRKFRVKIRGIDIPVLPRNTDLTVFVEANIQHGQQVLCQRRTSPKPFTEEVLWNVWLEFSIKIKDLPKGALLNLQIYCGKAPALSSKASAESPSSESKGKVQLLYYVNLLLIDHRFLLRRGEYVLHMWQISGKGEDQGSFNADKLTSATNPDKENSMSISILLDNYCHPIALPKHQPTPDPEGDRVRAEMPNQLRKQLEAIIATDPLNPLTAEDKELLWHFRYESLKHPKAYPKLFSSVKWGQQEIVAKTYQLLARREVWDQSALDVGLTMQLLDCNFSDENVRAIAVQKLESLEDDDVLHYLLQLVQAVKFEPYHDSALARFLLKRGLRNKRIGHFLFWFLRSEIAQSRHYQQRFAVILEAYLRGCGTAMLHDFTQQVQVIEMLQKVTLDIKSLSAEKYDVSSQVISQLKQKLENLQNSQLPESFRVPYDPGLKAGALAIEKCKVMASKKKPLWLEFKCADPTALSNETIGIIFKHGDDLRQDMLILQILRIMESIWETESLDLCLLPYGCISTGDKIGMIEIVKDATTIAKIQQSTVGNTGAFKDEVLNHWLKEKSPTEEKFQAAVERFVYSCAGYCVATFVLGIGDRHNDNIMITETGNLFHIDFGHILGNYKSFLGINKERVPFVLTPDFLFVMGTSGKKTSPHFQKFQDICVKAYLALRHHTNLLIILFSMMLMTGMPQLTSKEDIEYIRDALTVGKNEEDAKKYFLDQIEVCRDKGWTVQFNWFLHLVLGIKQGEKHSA
ASSAY PROTOCOL: Cellular U937 AKT assay K1 (MSD)
Type: cell-based
CONDITION SET: U937 cells, K1 format; read-out: Assay K1 PI3Kγ IC50
Where a name gives a salt, the structure may show the parent alone.
Just the number, please; pIC50 means minus log10 of the concentration in mol/L.

MOLECULE	READING
Cc1ccc(S(=O)(=O)NCC(C)(C)O)cc1-c1cnc(N)c(-c2cc(C3CC3)no2)n1	7.28
Cc1cc(-c2nc(-c3cc(S(=O)(=O)NC4CCC(C)(O)CC4)ccc3C)cnc2N)ccn1 (centres unmarked)	6.60
CCN1CCC[C@@H]1CNS(=O)(=O)c1ccc(C)c(-c2cnc(N)c(-c3cn(C)nc3C)n2)c1 [Example 27, hydrochloride]	7.24
Cc1ccc(S(=O)(=O)NCCC2(O)CCCCC2)cc1-c1cnc(N)c(-n2cncn2)n1	6.64

Which pIC50 is reported for this molecule? Cc1ccc(S(=O)(=O)NC2CCC(F)(F)CC2)cc1-c1cnc(N)c(-c2cnn(C)c2)n1 6.85

Which pIC50 is reported for this molecule? Cc1cc(F)c(S(=O)(=O)NCC(C)(C)O)cc1-c1cnc(N)c(-n2cncn2)n1 6.82

Which pIC50 is reported for this molecule? Cc1ccc(S(=O)(=O)NCCN)cc1-c1cnc(N)c(-n2cncn2)n1 [Example 33, trifluoroacetic acid salt] 5.70

Which pIC50 is reported for this molecule? Cc1ccc(S(=O)(=O)NCCC(C)(C)O)cc1-c1cnc(N)c(-n2cnc(C(C)C)n2)n1 6.96

Which pIC50 is reported for this molecule? Cc1ccc(S(=O)(=O)NCC(C)(C)O)cc1-c1cnc(N)c(-n2cnc(CN(C)C)n2)n1 [Example 117, hydrochloride salt] 6.24

Which pIC50 is reported for this molecule? Cc1ccc(S(=O)(=O)N[C@H]2CCOC2)cc1-c1cnc(N)c(-n2cncn2)n1 6.49

Which pIC50 is reported for this molecule? CCn1cc(-c2nc(-c3cc(S(=O)(=O)NCCC(C)(C)O)ccc3C)cnc2N)cn1 7.39

Which pIC50 is reported for this molecule? Cc1ccc(S(=O)(=O)NCC(F)F)cc1-c1cnc(N)c(-n2cncn2)n1 6.86

Which pIC50 is reported for this molecule? Cc1ccc(S(=O)(=O)NCC2CNCCO2)cc1-c1cnc(N)c(-c2cn(C)nc2C)n1 (centres unmarked) 6.12

Which pIC50 is reported for this molecule? Cc1ccc(S(=O)(=O)NCCC(C)(C)O)cc1-c1cnc(N)c(-c2cccnc2)n1 6.24

Which pIC50 is reported for this molecule? Cc1ccc(S(=O)(=O)NCCC(C)(C)O)cc1-c1cnc(N)c(-c2csc(CN3CCOCC3)c2)n1 7.01

Which pIC50 is reported for this molecule? Cc1ccc(S(=O)(=O)N[C@H]2CC[C@H](O)CC2)cc1-c1cnc(N)c(-c2cnn(C)c2)n1 7.14

Which pIC50 is reported for this molecule? Cc1ccc(S(=O)(=O)NCCC(C)(C)O)cc1-c1cnc(N)c(-n2cccn2)n1 6.96

Which pIC50 is reported for this molecule? Cc1ccc(S(=O)(=O)NCC(C)(C)O)cc1-c1cnc(N)c(-c2cnn(C)c2C)n1 6.84

Which pIC50 is reported for this molecule? Cc1ncc(-c2nc(-c3cc(S(=O)(=O)NC4CC(O)C4)ccc3C)cnc2N)s1 (mixture of isomers) 7.82

Every entry's value here was drawn from patent US10004732B2.
